Just for reference, paper PMC10253577 is where these values come from.

Target entity: hCA IV (Homo sapiens)
Sequence (P22748 19-312): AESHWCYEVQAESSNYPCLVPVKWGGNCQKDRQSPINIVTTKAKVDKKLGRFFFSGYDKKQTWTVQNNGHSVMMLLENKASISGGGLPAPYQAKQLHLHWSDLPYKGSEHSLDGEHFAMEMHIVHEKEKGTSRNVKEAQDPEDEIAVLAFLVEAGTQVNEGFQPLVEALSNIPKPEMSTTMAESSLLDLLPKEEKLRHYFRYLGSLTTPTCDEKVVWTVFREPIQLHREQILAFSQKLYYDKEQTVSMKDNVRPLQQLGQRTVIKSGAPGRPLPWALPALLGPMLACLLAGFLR
// reported Ki per item
Please reply with the bare figure in nM and do not write the unit itself.

Compound | Ki (nM)
NS(=O)(=O)c1ccc(N2C(=S)NC3C(O)C(C(O)CO)OC32)cc1 (centres unmarked) | 4570

Let's switch to this compound now.
[ask] What value of measured Ki is listed for NS(=O)(=O)c1cccc(N2C(=S)NC3C(O)C(C(O)CO)OC32)c1 (centres unmarked) ?
[reply] 45.1

* * *

Target entity: hCA IX (Homo sapiens)
Protocol summary: stopped-flow CO2 hydration assay, hCA IX
Condition details: Ki (CA I)/Ki (CA IX)
Returns one of 1.0 or 0.0; 1.0 when S.I. I/IX is >= 100.

Compound | Category label
NS(=O)(=O)c1ccc(CCNC(=S)N[C@@H]2O[C@H](CO)[C@H](O)[C@H](O)[C@H]2O)cc1 [Compound 2c] | 1.0
CO[C@H]1O[C@H](CO)[C@@H](O)[C@H](O)[C@H]1NC(=S)NCCCCCCOc1ccc2c(-c3ccccc3)cc(=O)oc2c1 [Compound 21f] | 1.0
NS(=O)(=O)c1ccc(NC(=S)NC2C(O)OC(CO)C(O)C2O)cc1 (stereo not drawn) [Compound 3a] | 0.0
NS(=O)(=O)c1ccc(NC(=S)N[C@@H]2O[C@H](CO)[C@H](O)[C@H](O)[C@H]2O)cc1 [Compound 2a] | 1.0
NS(=O)(=O)c1ccc(NC(=S)N[C@H]2C(O)O[C@H](CO)[C@H](O)[C@@H]2O)cc1 (stereo partly drawn) [Compound 4a] | 0.0

[ask] Threshold query (S.I. I/IX >= 100) on CO[C@H]1O[C@H](CO)[C@@H](O)[C@H](O)[C@H]1NC(=S)NCCCCOc1ccc2c(-c3ccccc3)cc(=O)oc2c1 [Compound 21e]
[reply] 1.0

[ask] Could you verify whether the entry NS(=O)(=O)c1ccc(CCNC(=S)N[C@@H]2O[C@H](CO)[C@@H](O)[C@H](O)[C@H]2O)cc1 [Compound 1c] shows S.I. I/IX of no less than 100?
[reply] 0.0

[ask] State whether the measured S.I. I/IX reaches 100, counting equality as reaching it, for NS(=O)(=O)c1ccc(NC(=S)N[C@@H]2O[C@H](CO)[C@@H](O)[C@H](O)[C@H]2O)cc1 [Compound 1a]
[reply] 0.0

* * *

Target entity: hCA XII (Homo sapiens, UniProt O43570)
Sequence (O43570 25-354): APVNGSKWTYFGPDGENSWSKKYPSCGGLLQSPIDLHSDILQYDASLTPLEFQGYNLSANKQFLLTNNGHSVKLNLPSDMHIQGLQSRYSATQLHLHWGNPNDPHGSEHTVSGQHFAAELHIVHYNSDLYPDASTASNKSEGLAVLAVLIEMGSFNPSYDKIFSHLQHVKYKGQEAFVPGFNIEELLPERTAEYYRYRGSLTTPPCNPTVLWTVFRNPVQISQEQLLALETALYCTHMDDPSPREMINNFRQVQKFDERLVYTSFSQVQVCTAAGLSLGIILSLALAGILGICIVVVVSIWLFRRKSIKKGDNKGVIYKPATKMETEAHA
Protocol summary: stopped-flow CO2 hydration assay, hCA XII
Condition details: Ki (CA I)/Ki (CA XII)
Measured S.I. I/XII of individual entries
Just the number, please, no unit attached.

Compound | S.I. I/XII
NS(=O)(=O)c1ccc(NC(=S)N[C@@H]2O[C@H](CO)[C@@H](O)[C@H](O)[C@H]2O)cc1 [Compound 1a] | 937
NS(=O)(=O)c1ccc(CCNC(=S)N[C@@H]2O[C@H](CO)[C@H](O)[C@H](O)[C@H]2O)cc1 [Compound 2c] | 568
NS(=O)(=O)c1ccc(NC(=S)N[C@@H]2O[C@H](CO)[C@H](O)[C@H](O)[C@H]2O)cc1 [Compound 2a] | 340

[ask] Query: S.I. I/XII; subject: NS(=O)(=O)c1ccc(CCNC(=S)N[C@@H]2O[C@H](CO)[C@@H](O)[C@H](O)[C@H]2O)cc1 [Compound 1c]
[reply] 0.9
